Test system: primary hPBMCs
Procedure Summary: Induction of RANTES from primary hPBMCs (ELISA)
Assay Context: Homo sapiens, read-out: hPBMCs EC50 RANTES, Table 4b; Donor 5
Measurement Type: EC50 (nM)
Respond with the bare value in nM.

Below, each entry is followed by its recorded EC50 result.
- CCCCCCCCCCC[C@H](CC(=O)NCCO[C@@H]1O[C@H](CO)[C@@H](OP(=O)(O)O)[C@@H](NC(=O)C[C@@H](CCCCCCCCCCC)OC(=O)CCCCCCCCC)[C@H]1NC(=O)C[C@@H](CCCCCCCCCCC)OC(=O)CCCCCCCCC)OC(=O)CCCCCCCCC: 0.0899
- CCCCCCCCCCC[C@H](CC(=O)NCCO[C@@H]1OC(CO)[C@@H](OCP(=O)(O)O)[C@H](NC(=O)C[C@@H](CCCCCCCCCCC)OC(=O)CCCCCCCCC)C1NC(=O)C[C@@H](CCCCCCCCCCC)OC(=O)CCCCCCCCC)OC(=O)CCCCCCCCC (some centres unmarked): 0.238
- CCCCCCCCCCC[C@H](CC(=O)NCCO[C@@H]1OC(CO)[C@@H](OS(=O)(=O)O)[C@H](NC(=O)C[C@@H](CCCCCCCCCCC)OC(=O)CCCCCCCCC)C1NC(=O)C[C@@H](CCCCCCCCCCC)OC(=O)CCCCCCCCC)OC(=O)CCCCCCCCC (some centres unmarked): 0.238
- CCCCCCCCCCC[C@H](CC(=O)NC1C(NC(=O)C[C@@H](CCCCCCCCCCC)OCCCCCCCCCC)[C@H](OP(=O)(O)O)C(CO)O[C@H]1OC[C@H](NC(=O)C[C@@H](CCCCCCCCCCC)OCCCCCCCCCC)C(=O)O)OCCCCCCCCCC (some centres unmarked): 0.0149

Please look at the following molecule next.
Param item: CCCCCCCCCCC[C@H](CC(=O)NC1[C@H](OC[C@H](NC(=O)C[C@@H](CCCCCCCCCCC)OCCCCCCCCCC)C(=O)O)OC(CO)[C@@H](OS(=O)(=O)O)[C@@H]1NC(=O)C[C@@H](CCCCCCCCCCC)OCCCCCCCCCC)OCCCCCCCCCC (some centres unmarked) ; param system: primary hPBMCs; output EC50: 0.0156

---

# maps each entry to its EC50
Test system: primary hPBMCs
Procedure Summary: Induction of MIP-1β from primary hPBMCs (ELISA)
Assay Context: Homo sapiens, read-out: hPBMCs EC50 MIP-1β, Table 3a; Donor 5
Reply with just the number (in nM).

Take a look at these entries with their results.
• CCCCCCCCCCC[C@H](CC(=O)NCCO[C@@H]1O[C@H](CO)[C@@H](OP(=O)(O)O)[C@@H](NC(=O)C[C@@H](CCCCCCCCCCC)OC(=O)CCCCCCCCC)[C@H]1NC(=O)C[C@@H](CCCCCCCCCCC)OC(=O)CCCCCCCCC)OC(=O)CCCCCCCCC = 0.0241
• CCCCCCCCCCC[C@H](CC(=O)NC1C(NC(=O)C[C@@H](CCCCCCCCCCC)OCCCCCCCCCC)[C@H](OP(=O)(O)O)C(CO)O[C@H]1OC[C@H](NC(=O)C[C@@H](CCCCCCCCCCC)OCCCCCCCCCC)C(=O)O)OCCCCCCCCCC (stereo partly shown) = 0.0027
• CCCCCCCCCCC[C@H](CC(=O)NCCO[C@@H]1OC(CO)[C@@H](OS(=O)(=O)O)[C@H](NC(=O)C[C@@H](CCCCCCCCCCC)OC(=O)CCCCCCCCC)C1NC(=O)C[C@@H](CCCCCCCCCCC)OC(=O)CCCCCCCCC)OC(=O)CCCCCCCCC (stereo partly shown) = 0.166

Form field EC50, entry `CCCCCCCCCCC[C@H](CC(=O)N[C@H]1[C@H](OC[C@H](NC(=O)C[C@@H](CCCCCCCCCCC)OC(=O)CCCCCCCCC)C(=O)OC)O[C@H](CO)[C@@H](OP(=O)(O)O)[C@H]1NC(=O)C[C@@H](CCCCCCCCCCC)OC(=O)CCCCCCCCC)OC(=O)CCCCCCCCC` : 0.0727

---

Target Of Assay: hTLR4 (Homo sapiens, UniProt O00206+Q9Y6Y9)
Construct: expressed in transfected cells; host or cells: HEK cells expressing hTLR4 and an NF-κB driven SEAP reporter
Sequence (O00206 24-839): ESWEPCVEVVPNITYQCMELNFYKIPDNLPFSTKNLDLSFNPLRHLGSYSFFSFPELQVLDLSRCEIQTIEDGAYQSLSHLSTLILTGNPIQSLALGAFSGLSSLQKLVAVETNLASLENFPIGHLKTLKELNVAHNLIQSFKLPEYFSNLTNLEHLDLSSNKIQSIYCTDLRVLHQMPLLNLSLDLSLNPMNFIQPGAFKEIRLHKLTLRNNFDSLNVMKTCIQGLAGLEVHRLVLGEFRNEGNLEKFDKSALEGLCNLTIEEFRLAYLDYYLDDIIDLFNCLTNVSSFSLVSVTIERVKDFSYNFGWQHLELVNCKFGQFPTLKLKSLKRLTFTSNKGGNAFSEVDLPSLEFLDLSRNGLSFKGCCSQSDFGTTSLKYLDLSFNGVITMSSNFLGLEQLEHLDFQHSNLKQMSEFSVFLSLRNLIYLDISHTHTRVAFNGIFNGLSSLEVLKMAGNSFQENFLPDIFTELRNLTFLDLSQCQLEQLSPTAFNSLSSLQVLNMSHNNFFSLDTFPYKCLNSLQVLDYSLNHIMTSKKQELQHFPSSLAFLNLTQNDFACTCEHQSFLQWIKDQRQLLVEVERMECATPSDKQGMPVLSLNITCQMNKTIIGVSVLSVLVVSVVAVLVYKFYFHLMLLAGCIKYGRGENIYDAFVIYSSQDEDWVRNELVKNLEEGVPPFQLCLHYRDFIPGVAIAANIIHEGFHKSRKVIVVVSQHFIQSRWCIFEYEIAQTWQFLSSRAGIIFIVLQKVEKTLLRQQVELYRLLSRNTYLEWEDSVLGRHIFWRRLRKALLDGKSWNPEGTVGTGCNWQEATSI
Sequence (Q9Y6Y9 17-160 limits assumed): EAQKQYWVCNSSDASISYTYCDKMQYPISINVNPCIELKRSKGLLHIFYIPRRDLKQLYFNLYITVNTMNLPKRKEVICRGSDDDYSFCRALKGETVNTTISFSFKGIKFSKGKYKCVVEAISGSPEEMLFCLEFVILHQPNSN
Procedure Summary: HEK hTLR4 NF-κB driven SEAP reporter assay (hTLR4 activation)
Type: cell-based
Assay Context: Table 1a, 18 hours
Property: EC50; scope: individual compounds
Give a bare numeral; the unit nM is implied.

• CCCCCCCCCCC[C@H](CC(=O)NCCO[C@@H]1O[C@H](CO)[C@@H](OP(=O)(O)O)[C@@H](NC(=O)C[C@@H](CCCCCCCCCCC)OC(=O)CCCCCCCCC)[C@H]1NC(=O)C[C@@H](CCCCCCCCCCC)OC(=O)CCCCCCCCC)OC(=O)CCCCCCCCC = 13.7
• CCCCCCCCCCC[C@H](CC(=O)NCCO[C@@H]1OC(CO)[C@@H](OS(=O)(=O)O)[C@H](NC(=O)C[C@@H](CCCCCCCCCCC)OC(=O)CCCCCCCCC)C1NC(=O)C[C@@H](CCCCCCCCCCC)OC(=O)CCCCCCCCC)OC(=O)CCCCCCCCC (stereo partly shown) = 64
• CCCCCCCCCCC[C@H](CC(=O)NC1C(NC(=O)C[C@@H](CCCCCCCCCCC)OCCCCCCCCCC)[C@H](OP(=O)(O)O)C(CO)O[C@H]1OC[C@H](NC(=O)C[C@@H](CCCCCCCCCCC)OCCCCCCCCCC)C(=O)O)OCCCCCCCCCC (stereo partly shown) = 1.32

# context switch: different compound, same EC50
The reported EC50 of the compound `CCCCCCCCCCC[C@H](CC(=O)N[C@H]1[C@H](OC[C@H](NC(=O)C[C@@H](CCCCCCCCCCC)OC(=O)CCCCCCCCC)C(=O)OC)O[C@H](CO)[C@@H](OP(=O)(O)O)[C@H]1NC(=O)C[C@@H](CCCCCCCCCCC)OC(=O)CCCCCCCCC)OC(=O)CCCCCCCCC` was 3.95

---

Test system: primary hPBMCs
Procedure Summary: Induction of MIP-1β from primary hPBMCs (ELISA)
Assay Context: Homo sapiens, read-out: hPBMCs EC50 MIP-1β, Table 4b; Average of Donors 22, 5
pEC50: −log10 of the molar value.
Criterion: pEC50 meeting or surpassing 10. Met: 1.0. Not met: 0.0.

Solved entries:
- CCCCCCCCCCC[C@H](CC(=O)NCCO[C@@H]1OC(CO)[C@@H](OS(=O)(=O)O)[C@H](NC(=O)C[C@@H](CCCCCCCCCCC)OC(=O)CCCCCCCCC)C1NC(=O)C[C@@H](CCCCCCCCCCC)OC(=O)CCCCCCCCC)OC(=O)CCCCCCCCC (some centres unmarked): 0.0
- CCCCCCCCCCC[C@H](CC(=O)NC1C(NC(=O)C[C@@H](CCCCCCCCCCC)OCCCCCCCCCC)[C@H](OP(=O)(O)O)C(CO)O[C@H]1OC[C@H](NC(=O)C[C@@H](CCCCCCCCCCC)OCCCCCCCCCC)C(=O)O)OCCCCCCCCCC (some centres unmarked): 1.0

input: Test whether the molecule CCCCCCCCCCC[C@H](CC(=O)NC1[C@H](OC[C@H](NC(=O)C[C@@H](CCCCCCCCCCC)OCCCCCCCCCC)C(=O)O)OC(CO)[C@@H](OS(=O)(=O)O)[C@@H]1NC(=O)C[C@@H](CCCCCCCCCCC)OCCCCCCCCCC)OCCCCCCCCCC (some centres unmarked) records pEC50 of 10 or higher.
output: 1.0

---

System: primary hPBMCs
Procedure Summary: Induction of RANTES from primary hPBMCs (ELISA)
Assay Context: Homo sapiens, read-out: hPBMCs EC50 RANTES, Table 3a; Average of Donors 10, 5, 2
Measurement Type: pEC50
// returns pEC50 (minus log10 of molar concentration), number only

• CCCCCCCCCCC[C@H](CC(=O)N[C@H]1[C@H](OC[C@H](NC(=O)C[C@@H](CCCCCCCCCCC)OC(=O)CCCCCCCCC)C(=O)OC)O[C@H](CO)[C@@H](OP(=O)(O)O)[C@H]1NC(=O)C[C@@H](CCCCCCCCCCC)OC(=O)CCCCCCCCC)OC(=O)CCCCCCCCC [Compound 3] = 10.14
• CCCCCCCCCCC[C@H](CC(=O)NC1C(NC(=O)C[C@@H](CCCCCCCCCCC)OCCCCCCCCCC)[C@H](OP(=O)(O)O)C(CO)O[C@H]1OC[C@H](NC(=O)C[C@@H](CCCCCCCCCCC)OCCCCCCCCCC)C(=O)O)OCCCCCCCCCC (stereo partly shown) [Compound 4] = 11.08
• CCCCCCCCCCC[C@H](CC(=O)NCCO[C@@H]1OC(CO)[C@@H](OS(=O)(=O)O)[C@H](NC(=O)C[C@@H](CCCCCCCCCCC)OC(=O)CCCCCCCCC)C1NC(=O)C[C@@H](CCCCCCCCCCC)OC(=O)CCCCCCCCC)OC(=O)CCCCCCCCC (stereo partly shown) [Compound 2] = 9.61

We now examine a further compound.
Given item CCCCCCCCCCC[C@H](CC(=O)NCCO[C@@H]1O[C@H](CO)[C@@H](OP(=O)(O)O)[C@@H](NC(=O)C[C@@H](CCCCCCCCCCC)OC(=O)CCCCCCCCC)[C@H]1NC(=O)C[C@@H](CCCCCCCCCCC)OC(=O)CCCCCCCCC)OC(=O)CCCCCCCCC [Compound 1] , the value recorded as its pEC50 is 10.69
